Protocol description: cells
Assay type: cell-based, Ebolavirus
Particulars: Orthoebolavirus, HeLa, 4.5 h
So basically: is IC50 under 2 µM? Then y. Not under? Then n.

- Compound: "COc1cc2c(Oc3ccc4[nH]c(C)cc4c3F)ncnc2cc1OCCCN1CCCC1"
  Class: "n"
- Compound: "CC[C@]1(O)C[C@H]2CN(CCc3c([nH]c4ccccc34)[C@@](C(=O)OC)(c3cc4c(cc3OC)N(C=O)[C@H]3[C@@](O)(C(=O)OC)[C@H](OC(C)=O)[C@]5(CC)C=CCN6CC[C@]43[C@@H]65)C2)C1"
  Class: "y"
- Compound: "CN1CCN(CCCN2c3ccccc3Sc3ccc(S(=O)(=O)N(C)C)cc32)CC1"
  Class: "n"
- Compound: "CNC1CCC(N(Cc2cccc(-c3ccncc3)c2)C(=O)c2sc3c(F)ccc(F)c3c2Cl)CC1 (configuration not stated)"
  Class: "n"
- Compound: "CCN(CC)CCCN(c1ccccc1)C1Cc2ccccc2C1"
  Class: "n"
- Compound: "CC/C(=C(\\c1ccc(O)cc1)c1ccc(OCCNC)cc1)c1ccccc1 [ENDOXIFEN]"
  Class: "n"
- Compound: "COc1cc(Nc2c(C#N)cnc3cc(OCCCN4CCN(C)CC4)c(OC)cc23)c(Cl)cc1Cl"
  Class: "n"
- Compound: "CN1[C@@H]2CC[C@H]1C[C@@H](OC1c3ccccc3CCc3ccccc31)C2"
  Class: "n"
- Compound: "COc1ccc2cc1Oc1ccc(cc1)C[C@H]1c3cc(c(OC)cc3CCN1C)Oc1c(OC)c(OC)cc3c1[C@H](C2)N(C)CC3"
  Class: "n"
- Compound: "Cc1ccc(CN2CCCN(C)C3(CCN(C)CC3)C2)cc1C"
  Class: "n"
- Compound: "CC(=O)N(C)C1(c2ccccc2)CCN(CCC[C@]2(c3ccc(Cl)c(Cl)c3)CCCN(C(=O)c3ccccc3)C2)CC1"
  Class: "n"
- Compound: "CCC1=C[C@@H]2CN(C1)Cc1c([nH]c3ccccc13)[C@@](C(=O)OC)(c1cc3c(cc1OC)N(C)[C@H]1[C@@](O)(C(=O)OC)[C@H](OC(C)=O)[C@]4(CC)C=CCN5CC[C@]31[C@@H]54)C2"
  Class: "y"
- Compound: "CCCCc1oc2ccc(NS(C)(=O)=O)cc2c1C(=O)c1ccc(OCCCN(CCCC)CCCC)cc1"
  Class: "n"
- Compound: "Nc1ncnc2c1c(-c1cccc(OCc3ccccc3)c1)cn2[C@H]1C[C@H](CN2CCCC2)C1"
  Class: "n"
- Compound: "CN(C)c1ccccc1CN1CCCN(Cc2ccccc2N(C)C)C1c1ccncc1"
  Class: "n"
- Compound: "CC[C@]1(O)C[C@@H]2CN(CCc3c([nH]c4ccccc34)[C@@](C(=O)OC)(c3cc4c(cc3OC)N(C)[C@H]3[C@@](O)(C(N)=O)[C@H](O)[C@]5(CC)C=CCN6CC[C@]43[C@@H]65)C2)C1"
  Class: "y"

====

Protocol description: in vitro
Particulars: human, hela
// NB: equality with 80 counts as not satisfied; only selectivity ratio strictly below is satisfied

- Compound: "CCC(=C(c1ccc(O)cc1)c1ccc(OCCN(C)C)cc1)c1ccccc1"
  Class: "not satisfied"
- Compound: "CC(=O)N(C)C1(c2ccccc2)CCN(CCC[C@]2(c3ccc(Cl)c(Cl)c3)CCCN(C(=O)c3ccccc3)C2)CC1"
  Class: "satisfied"
- Compound: "CC/C(=C(\\c1ccc(O)cc1)c1ccc(OCCNC)cc1)c1ccccc1 [ENDOXIFEN]"
  Class: "not satisfied"
- Compound: "Nc1ncnc2c1c(-c1cccc(OCc3ccccc3)c1)cn2[C@H]1C[C@H](CN2CCCC2)C1"
  Class: "satisfied"

====

Each item that follows carries a reported IC50.
Protocol description: cells
Type: cell-based, Ebolavirus
Particulars: Orthoebolavirus, HeLa, 4.5 h

- Molecule: "COCC(=O)O[C@]1(CCN(C)CCCc2nc3ccccc3[nH]2)CCc2cc(F)ccc2[C@@H]1C(C)C"
  IC50 / nM: 4320
- Molecule: "COc1ccc2cc1Oc1ccc(cc1)C[C@H]1c3c(cc4c(c3Oc3cc5c(cc3OC)CCN(C)[C@@H]5C2)OCO4)CCN1C"
  IC50 / nM: 1530
- Molecule: "COc1cc2nc(N3CCCN(C)CC3)nc(NC3CCN(Cc4ccccc4)CC3)c2cc1OC"
  IC50 / nM: 966
- Molecule: "Cc1[nH]c2c(CN3CC(CO)C(CN4CCCC4)C3)cccc2c1C (centres undefined)"
  IC50 / nM: 6090
